# SUBJECT OF TEST: T1, mesothelin on CHO-A9 cells (CHO-K1 stably transfected with the GPI-anchored C-terminal part of mesothelin) (Homo sapiens (Human), UniProt Q13421 287-598, GPI anchor)
# T1 construct: In the immunoblots the protein stood in a denatured cell extract; also called mesothelin-expressing CHO-A9 cells
# TEST METHOD NOTES: live cell ELISA, IgG1 on CHO-A9 cells
MEASUREMENT LABEL: pEC50
Quick note: pEC50 means taking -log10 of the concentration in moles per liter.

{"BINDER": "MF-226 IgG (antibody, V domains shown) VH: QVELVQSGAEVKKPGASVKVSCKASGYTFTGNYINWVRQAPGQGLEWMGIINPHGGDTKYAQKFQGRVTMTRDTSISTAYMELSSLRSEDTAVYYCARWHHGTWIFDYWGQGTLVTVSS VL: DIVLTQPPSVSGAPGQRVTISCSGSSSNIGSNYVSWYQQLPGTAPKLLIYNDNQRPSGVPDRFSGSKSGTSASLAITGLQSEDEADYYCSTYDRRTFSVFGGGTKLTVLG", "RESULT NUMBER": 9.40}

--- query ---
Suppose we examine the binder MF-L IgG (antibody, V domains shown) VH: QVQLVESGGGLVQPGGSLRLSCAASGFTFSDYAMSWVRQAPGKGLEWVSAIMYDSSSTFYADSVKGRFTISRDNSKNTLYLQMNSLRAEDTAVYYCARINYIYKGVHFDYWGQGTLVTVSS VL: DIVLTQSPATLSLSPGERATLSCRASQIVSGYLAWYQQKPGQAPRLLIYGASSRATGVPARFSGSGSGTDFTLTISSLEPEDFATYYCQQYYNFSFTFGQGTKVEIKR ; what pEC50 value has been reported?
9.10
